assay: Tmax in epithelial lining fluid of lung transplant recipient invasive aspergillosis patient at 150 mg, iv QD for 4 consecutive days by HPLC; format: ADME, organism-based; details: human
Numbered stars: 1 amine (or outer) side, 2 acyl side, 3 side chain; on linkers, the order of the positions; unused ones are H or OH. Bridge positions count the residues as written; N and C are the ends. Square brackets hold non-standard residues; d marks the D form. Peptide text beside a SMILES is read from it. * marks the point of attachment. hTyr(3S-OH,4S-OH,3'-OSO3H) = N[C@H](C(=O)O)[C@H](O)[C@@H](O)c1ccc(O)c(OS(=O)(=O)O)c1; Orn(4R-OH,5R-OH) = O=C([C@H](C[C@@H](O)[C@@H](O)N[*:3])N[*:1])[*:2]; Pro(3S-OH,4S-Me) = C[C@H]1CN[C@H](C(=O)O)[C@H]1O; X1 = CCCCCOc1ccc(-c2cc(-c3ccc(C(=O)*)cc3)no2)cc1; Gln(3R-OH) = NC(=O)C[C@@H](O)[C@H](N)C(=O)O; Hyp = O=C(O)[C@@H]1C[C@@H](O)CN1
experimental_endpoint: Tmax (h)
Reply with just the number (in h).

// Tmax lookup, key: CCCCCOc1ccc(-c2cc(-c3ccc(C(=O)N[C@H]4C[C@@H](O)[C@@H](O)NC(=O)[C@@H]5[C@@H](O)[C@@H](C)CN5C(=O)[C@H]([C@H](O)CC(N)=O)NC(=O)[C@H]([C@H](O)[C@@H](O)c5ccc(O)c(OS(=O)(=O)O)c5)NC(=O)[C@@H]5C[C@@H](O)CN5C(=O)[C@H]([C@@H](C)O)NC4=O)cc3)no2)cc1 [MICAFUNGIN] (X1-[Orn(4R-OH,5R-OH)]T[Hyp][hTyr(3S-OH,4S-OH,3'-OSO3H)][Gln(3R-OH)][Pro(3S-OH,4S-Me)]; lactam 1-C) 24.2
